system name: Cytochrome P450 2C19 (Homo sapiens)
Sequence (P33261 whole entry): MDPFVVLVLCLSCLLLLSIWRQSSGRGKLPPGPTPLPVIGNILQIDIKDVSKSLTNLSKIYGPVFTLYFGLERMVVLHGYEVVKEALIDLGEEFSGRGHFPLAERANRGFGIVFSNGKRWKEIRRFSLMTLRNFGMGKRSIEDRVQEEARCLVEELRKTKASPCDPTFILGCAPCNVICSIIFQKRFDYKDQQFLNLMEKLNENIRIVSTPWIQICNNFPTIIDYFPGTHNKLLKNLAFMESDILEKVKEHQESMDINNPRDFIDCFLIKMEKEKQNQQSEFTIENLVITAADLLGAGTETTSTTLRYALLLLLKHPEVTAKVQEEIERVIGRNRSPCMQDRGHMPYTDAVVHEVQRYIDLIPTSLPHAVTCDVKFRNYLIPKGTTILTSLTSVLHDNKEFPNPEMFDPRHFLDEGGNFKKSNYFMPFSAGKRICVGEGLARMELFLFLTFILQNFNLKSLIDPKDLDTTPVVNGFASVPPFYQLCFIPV
assay text: Cytochrome panel assay with activity outcomes. Panel member name: p450-cyp2c19 Compounds with AC50 equal or less than 10 uM are considered active
Assay type: functional
stated conditions: read-out: AC50
AC50 reference
observed property: AC50

compound="Cc1cccc(NC(S)=NC2CC3CCCC(C2)N3Cc2cccs2)c1 (stereo unspecified)" result="28.2 µM (inconclusive)"
compound=O=C1OCCC=C1[C@@H](O)CCc1ccccc1 result="0.316 µM (inconclusive)"
compound="Fc1ccc2c(c1)C1C=CCC1C(c1cc3c(cc1Br)OCO3)N2 (stereo unspecified)" result="0.316 µM (inconclusive)"
compound=Cc1cccc(CNc2ncnc3ccc(-c4ccc(C(=O)N(C)C)cc4)cc23)c1 result="39.8 µM (inconclusive)"
compound=NC1=NC2(CCCCCC2)n2c(nc3ccccc32)N1 result="22.4 µM (inconclusive)"
compound=Cc1cccc(OCC(=O)NNC(=O)CSc2ncc(C#N)c(N)n2)c1 result="15.8 µM (inconclusive)"
compound=CCN(CC)CCn1c(=S)[nH]c2cc3c(cc2c1=O)OCO3 result="39.8 µM (inconclusive)"
compound=COC(=O)[C@@]1(Cc2ccc(OC)cc2)[C@H]2c3cc(C(=O)N(C)C)n(C)c3C[C@H]2CN1C(=O)c1ccccc1 result="25.1 µM (inconclusive)"
compound=c1ccc(Nc2nc(-c3ccoc3)nc3ccccc23)cc1 result="31.6 µM (inconclusive)"
compound="COC(=O)C1CC1C(NC(=O)[C@@H]1CCCN1)c1ccccc1 (stereo partly specified)" result="39.8 µM (inconclusive)"
compound=O=C(CCCc1ccccn1)c1ccccc1 result="2.51 µM (inconclusive)"
